- experimental-target: UniProt:P51956
- Sequence (whole entry): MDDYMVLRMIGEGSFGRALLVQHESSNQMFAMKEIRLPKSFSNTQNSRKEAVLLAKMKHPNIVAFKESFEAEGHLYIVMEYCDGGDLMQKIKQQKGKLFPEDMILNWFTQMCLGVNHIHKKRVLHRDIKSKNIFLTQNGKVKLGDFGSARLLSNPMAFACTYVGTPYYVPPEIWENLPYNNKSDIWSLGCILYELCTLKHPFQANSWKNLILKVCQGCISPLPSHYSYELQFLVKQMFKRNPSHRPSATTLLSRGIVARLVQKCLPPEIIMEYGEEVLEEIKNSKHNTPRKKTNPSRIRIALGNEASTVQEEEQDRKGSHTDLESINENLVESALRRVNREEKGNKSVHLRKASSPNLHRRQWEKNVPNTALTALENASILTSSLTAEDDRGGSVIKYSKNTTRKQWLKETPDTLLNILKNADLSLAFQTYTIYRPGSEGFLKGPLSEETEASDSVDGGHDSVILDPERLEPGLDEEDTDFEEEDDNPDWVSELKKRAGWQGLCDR
- assay-remarks: pIC50, kinobeads binding competition
- condition-context: cell material: Lysate mix
measure: pIC50

compound=CCNC(=O)c1cc(Nc2cc(C)[nH]n2)nc(N2CCN(Cc3ccc(S(=O)(=O)F)cc3)CC2)n1 endpoint_value="< 4.52"
compound="O=C(NCCNC(=O)c1cc(Nc2cc(C3CC3)[nH]n2)nc(N2CCN(Cc3ccc(S(=O)(=O)F)cc3)CC2)n1)OC1CC/C=C/CCC1 (stereo unspecified)" endpoint_value="< 4.52"
compound=C#CCNC(=O)c1cc(Nc2cc(C3CC3)[nH]n2)nc(N2CCN(Cc3ccc(S(=O)(=O)F)cc3)CC2)n1 endpoint_value=5.7
compound=C#CCNC(=O)c1cc(Nc2cc(C)[nH]n2)nc(N2CCN(Cc3ccc(S(=O)(=O)F)cc3)CC2)n1 endpoint_value="< 4.52"
compound=CCNC(=O)c1cc(Nc2cc(C3CC3)[nH]n2)nc(N2CCN(Cc3ccc(S(=O)(=O)F)cc3)CC2)n1 endpoint_value=5.46
compound="Cc1cc(Nc2cc(C(=O)NCCNC(=O)OC3CC/C=C/CCC3)nc(N3CCN(Cc4ccc(S(=O)(=O)F)cc4)CC3)n2)n[nH]1 (stereo unspecified)" endpoint_value="< 4.52"

----------
- experimental-target: MYLK3 (UniProt Q32MK0)
- Sequence (Q32MK0 whole entry): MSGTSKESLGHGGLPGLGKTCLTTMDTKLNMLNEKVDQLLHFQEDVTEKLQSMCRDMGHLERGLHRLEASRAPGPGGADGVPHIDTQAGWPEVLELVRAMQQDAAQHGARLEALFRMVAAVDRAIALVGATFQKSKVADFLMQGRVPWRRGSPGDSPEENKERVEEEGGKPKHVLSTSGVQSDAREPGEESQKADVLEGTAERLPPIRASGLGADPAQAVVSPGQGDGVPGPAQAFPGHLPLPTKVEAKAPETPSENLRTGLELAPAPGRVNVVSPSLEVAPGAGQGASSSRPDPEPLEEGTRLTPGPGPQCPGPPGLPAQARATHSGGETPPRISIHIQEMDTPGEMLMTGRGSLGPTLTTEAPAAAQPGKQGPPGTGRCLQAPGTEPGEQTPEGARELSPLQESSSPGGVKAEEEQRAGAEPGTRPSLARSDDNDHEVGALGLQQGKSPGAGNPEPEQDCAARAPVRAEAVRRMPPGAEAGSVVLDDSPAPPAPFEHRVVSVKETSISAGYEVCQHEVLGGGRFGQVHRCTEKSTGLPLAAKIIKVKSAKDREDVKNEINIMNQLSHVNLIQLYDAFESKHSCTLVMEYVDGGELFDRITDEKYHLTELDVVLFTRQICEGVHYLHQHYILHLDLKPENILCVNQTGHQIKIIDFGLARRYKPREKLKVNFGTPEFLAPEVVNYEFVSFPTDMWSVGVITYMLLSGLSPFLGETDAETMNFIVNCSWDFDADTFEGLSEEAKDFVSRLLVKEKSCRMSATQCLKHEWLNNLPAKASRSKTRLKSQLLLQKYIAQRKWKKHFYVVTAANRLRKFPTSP
- assay-remarks: pIC50, kinobeads binding competition
- condition-context: cell material: Lysate mix
measure: pIC50

molecule=CCNC(=O)c1cc(Nc2cc(C3CC3)[nH]n2)nc(N2CCN(Cc3ccc(S(=O)(=O)F)cc3)CC2)n1 experimental_target="MYLK3 (UniProt Q32MK0)" measure=pIC50 endpoint_value=4.69
molecule=CCNC(=O)c1cc(Nc2cc(C)[nH]n2)nc(N2CCN(Cc3ccc(S(=O)(=O)F)cc3)CC2)n1 experimental_target="MYLK3 (UniProt Q32MK0)" measure=pIC50 endpoint_value="< 4.52"
molecule="Cc1cc(Nc2cc(C(=O)NCCNC(=O)OC3CC/C=C/CCC3)nc(N3CCN(Cc4ccc(S(=O)(=O)F)cc4)CC3)n2)n[nH]1 (stereo unspecified)" experimental_target="MYLK3 (UniProt Q32MK0)" measure=pIC50 endpoint_value="< 4.52"
molecule=C#CCNC(=O)c1cc(Nc2cc(C3CC3)[nH]n2)nc(N2CCN(Cc3ccc(S(=O)(=O)F)cc3)CC2)n1 experimental_target="MYLK3 (UniProt Q32MK0)" measure=pIC50 endpoint_value="< 4.52"
molecule=C#CCNC(=O)c1cc(Nc2cc(C)[nH]n2)nc(N2CCN(Cc3ccc(S(=O)(=O)F)cc3)CC2)n1 experimental_target="MYLK3 (UniProt Q32MK0)" measure=pIC50 endpoint_value="< 4.52"
molecule="O=C(NCCNC(=O)c1cc(Nc2cc(C3CC3)[nH]n2)nc(N2CCN(Cc3ccc(S(=O)(=O)F)cc3)CC2)n1)OC1CC/C=C/CCC1 (stereo unspecified)" experimental_target="MYLK3 (UniProt Q32MK0)" measure=pIC50 endpoint_value="< 4.52"

----------
- experimental-target: UniProt P36507
- Sequence (P36507 whole entry): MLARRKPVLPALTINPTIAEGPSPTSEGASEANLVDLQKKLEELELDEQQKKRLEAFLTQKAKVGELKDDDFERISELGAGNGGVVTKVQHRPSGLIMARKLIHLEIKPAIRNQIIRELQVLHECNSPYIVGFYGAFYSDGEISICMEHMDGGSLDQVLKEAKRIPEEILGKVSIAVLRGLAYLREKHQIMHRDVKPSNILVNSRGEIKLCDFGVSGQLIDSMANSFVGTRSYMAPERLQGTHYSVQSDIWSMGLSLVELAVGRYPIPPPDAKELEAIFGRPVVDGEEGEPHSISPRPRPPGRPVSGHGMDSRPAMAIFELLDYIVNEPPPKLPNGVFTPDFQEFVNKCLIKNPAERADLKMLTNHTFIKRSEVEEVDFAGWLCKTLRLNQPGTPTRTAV
- assay-remarks: pIC50, kinobeads binding competition
- condition-context: cell material: Lysate mix
measure: pIC50

compound="O=C(NCCNC(=O)c1cc(Nc2cc(C3CC3)[nH]n2)nc(N2CCN(Cc3ccc(S(=O)(=O)F)cc3)CC2)n1)OC1CC/C=C/CCC1 (stereo unspecified)" endpoint_value="< 4.52"
compound=CCNC(=O)c1cc(Nc2cc(C3CC3)[nH]n2)nc(N2CCN(Cc3ccc(S(=O)(=O)F)cc3)CC2)n1 endpoint_value=5.73
compound=C#CCNC(=O)c1cc(Nc2cc(C3CC3)[nH]n2)nc(N2CCN(Cc3ccc(S(=O)(=O)F)cc3)CC2)n1 endpoint_value=5.72
compound="Cc1cc(Nc2cc(C(=O)NCCNC(=O)OC3CC/C=C/CCC3)nc(N3CCN(Cc4ccc(S(=O)(=O)F)cc4)CC3)n2)n[nH]1 (stereo unspecified)" endpoint_value="< 4.52"
compound=CCNC(=O)c1cc(Nc2cc(C)[nH]n2)nc(N2CCN(Cc3ccc(S(=O)(=O)F)cc3)CC2)n1 endpoint_value="< 4.52"
compound=C#CCNC(=O)c1cc(Nc2cc(C)[nH]n2)nc(N2CCN(Cc3ccc(S(=O)(=O)F)cc3)CC2)n1 endpoint_value="< 4.52"

----------
- experimental-target: UniProt P06239
- Sequence (P06239 whole entry, looked up): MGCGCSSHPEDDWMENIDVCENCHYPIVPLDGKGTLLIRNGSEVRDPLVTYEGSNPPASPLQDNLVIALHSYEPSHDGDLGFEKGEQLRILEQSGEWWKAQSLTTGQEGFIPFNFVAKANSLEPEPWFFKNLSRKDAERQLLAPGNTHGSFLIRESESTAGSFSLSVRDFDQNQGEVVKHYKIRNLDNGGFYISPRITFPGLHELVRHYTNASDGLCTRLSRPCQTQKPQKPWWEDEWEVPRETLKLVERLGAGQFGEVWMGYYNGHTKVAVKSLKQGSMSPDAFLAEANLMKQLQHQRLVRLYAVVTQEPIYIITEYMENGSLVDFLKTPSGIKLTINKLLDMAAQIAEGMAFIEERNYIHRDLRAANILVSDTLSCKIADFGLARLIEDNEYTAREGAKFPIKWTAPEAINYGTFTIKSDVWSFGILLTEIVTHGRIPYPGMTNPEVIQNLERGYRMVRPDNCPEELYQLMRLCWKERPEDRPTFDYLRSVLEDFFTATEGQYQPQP
- assay-remarks: pIC50, kinobeads binding competition
- condition-context: cell material: Lysate mix
# pIC50 per entry
measure: pIC50

molecule="Cc1cc(Nc2cc(C(=O)NCCNC(=O)OC3CC/C=C/CCC3)nc(N3CCN(Cc4ccc(S(=O)(=O)F)cc4)CC3)n2)n[nH]1 (stereo not given)" measure=pIC50 relation=< endpoint_value=4.52
molecule=C#CCNC(=O)c1cc(Nc2cc(C)[nH]n2)nc(N2CCN(Cc3ccc(S(=O)(=O)F)cc3)CC2)n1 measure=pIC50 relation== endpoint_value=5.66
molecule=CCNC(=O)c1cc(Nc2cc(C3CC3)[nH]n2)nc(N2CCN(Cc3ccc(S(=O)(=O)F)cc3)CC2)n1 measure=pIC50 relation== endpoint_value=5.89
molecule=C#CCNC(=O)c1cc(Nc2cc(C3CC3)[nH]n2)nc(N2CCN(Cc3ccc(S(=O)(=O)F)cc3)CC2)n1 measure=pIC50 relation== endpoint_value=6.07
molecule=CCNC(=O)c1cc(Nc2cc(C)[nH]n2)nc(N2CCN(Cc3ccc(S(=O)(=O)F)cc3)CC2)n1 measure=pIC50 relation== endpoint_value=5.72

----------
- experimental-target: UniProtKB Q00534
- Sequence (Q00534 whole entry): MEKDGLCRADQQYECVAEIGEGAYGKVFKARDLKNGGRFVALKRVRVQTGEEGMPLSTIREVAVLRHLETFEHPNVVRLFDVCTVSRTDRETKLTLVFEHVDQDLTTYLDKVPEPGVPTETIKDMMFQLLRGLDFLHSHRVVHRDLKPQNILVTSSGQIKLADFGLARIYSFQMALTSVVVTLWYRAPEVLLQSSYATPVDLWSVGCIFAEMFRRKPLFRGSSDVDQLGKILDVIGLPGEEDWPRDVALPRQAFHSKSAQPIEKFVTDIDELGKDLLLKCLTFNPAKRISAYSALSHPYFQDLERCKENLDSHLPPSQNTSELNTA
- assay-remarks: pIC50, kinobeads binding competition
- condition-context: cell material: Lysate mix
# pIC50 per entry
measure: pIC50

molecule=C#CCNC(=O)c1cc(Nc2cc(C3CC3)[nH]n2)nc(N2CCN(Cc3ccc(S(=O)(=O)F)cc3)CC2)n1 relation== endpoint_value=5.58
molecule=CCNC(=O)c1cc(Nc2cc(C3CC3)[nH]n2)nc(N2CCN(Cc3ccc(S(=O)(=O)F)cc3)CC2)n1 relation== endpoint_value=5.52
molecule=C#CCNC(=O)c1cc(Nc2cc(C)[nH]n2)nc(N2CCN(Cc3ccc(S(=O)(=O)F)cc3)CC2)n1 relation== endpoint_value=5.06
molecule=CCNC(=O)c1cc(Nc2cc(C)[nH]n2)nc(N2CCN(Cc3ccc(S(=O)(=O)F)cc3)CC2)n1 relation== endpoint_value=5.22
molecule="O=C(NCCNC(=O)c1cc(Nc2cc(C3CC3)[nH]n2)nc(N2CCN(Cc3ccc(S(=O)(=O)F)cc3)CC2)n1)OC1CC/C=C/CCC1 (stereo unspecified)" relation=< endpoint_value=4.52
molecule="Cc1cc(Nc2cc(C(=O)NCCNC(=O)OC3CC/C=C/CCC3)nc(N3CCN(Cc4ccc(S(=O)(=O)F)cc4)CC3)n2)n[nH]1 (stereo unspecified)" relation=< endpoint_value=4.52

----------
# pIC50 per entry
- experimental-target: UniProtKB Q9NRM7
- Sequence (whole entry): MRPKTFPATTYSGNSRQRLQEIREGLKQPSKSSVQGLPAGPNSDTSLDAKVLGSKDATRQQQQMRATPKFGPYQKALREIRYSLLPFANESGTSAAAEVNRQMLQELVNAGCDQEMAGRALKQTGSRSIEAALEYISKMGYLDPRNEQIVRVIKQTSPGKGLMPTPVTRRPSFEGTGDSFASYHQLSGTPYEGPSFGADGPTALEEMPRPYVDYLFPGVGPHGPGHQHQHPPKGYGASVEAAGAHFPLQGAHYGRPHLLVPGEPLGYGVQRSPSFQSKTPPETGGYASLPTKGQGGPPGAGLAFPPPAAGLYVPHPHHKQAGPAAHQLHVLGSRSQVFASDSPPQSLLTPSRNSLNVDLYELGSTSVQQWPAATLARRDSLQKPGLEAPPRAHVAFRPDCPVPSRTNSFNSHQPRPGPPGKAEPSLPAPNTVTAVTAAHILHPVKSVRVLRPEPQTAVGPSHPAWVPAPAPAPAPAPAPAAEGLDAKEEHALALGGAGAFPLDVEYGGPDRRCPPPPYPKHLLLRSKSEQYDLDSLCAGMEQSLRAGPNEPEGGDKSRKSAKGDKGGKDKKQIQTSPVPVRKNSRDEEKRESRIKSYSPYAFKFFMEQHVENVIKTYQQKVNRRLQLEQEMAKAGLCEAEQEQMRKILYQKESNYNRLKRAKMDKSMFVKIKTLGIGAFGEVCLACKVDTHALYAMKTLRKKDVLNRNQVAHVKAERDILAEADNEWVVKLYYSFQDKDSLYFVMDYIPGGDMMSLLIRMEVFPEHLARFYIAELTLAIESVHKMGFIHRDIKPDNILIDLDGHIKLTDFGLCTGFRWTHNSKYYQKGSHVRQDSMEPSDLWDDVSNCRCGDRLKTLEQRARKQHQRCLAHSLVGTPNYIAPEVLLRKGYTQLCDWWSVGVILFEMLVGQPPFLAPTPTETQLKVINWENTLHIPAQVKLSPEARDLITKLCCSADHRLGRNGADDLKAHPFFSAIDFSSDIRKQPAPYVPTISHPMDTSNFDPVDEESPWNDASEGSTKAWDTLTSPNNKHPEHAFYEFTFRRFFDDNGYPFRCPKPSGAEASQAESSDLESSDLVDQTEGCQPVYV
- assay-remarks: pIC50, kinobeads binding competition
- condition-context: cell material: Lysate mix
measure: pIC50

compound="Cc1cc(Nc2cc(C(=O)NCCNC(=O)OC3CC/C=C/CCC3)nc(N3CCN(Cc4ccc(S(=O)(=O)F)cc4)CC3)n2)n[nH]1 (stereo not given)" measure=pIC50 endpoint_value="< 4.52"
compound=CCNC(=O)c1cc(Nc2cc(C3CC3)[nH]n2)nc(N2CCN(Cc3ccc(S(=O)(=O)F)cc3)CC2)n1 measure=pIC50 endpoint_value=5.31
compound="O=C(NCCNC(=O)c1cc(Nc2cc(C3CC3)[nH]n2)nc(N2CCN(Cc3ccc(S(=O)(=O)F)cc3)CC2)n1)OC1CC/C=C/CCC1 (stereo not given)" measure=pIC50 endpoint_value="< 4.52"
compound=C#CCNC(=O)c1cc(Nc2cc(C)[nH]n2)nc(N2CCN(Cc3ccc(S(=O)(=O)F)cc3)CC2)n1 measure=pIC50 endpoint_value=4.77
compound=C#CCNC(=O)c1cc(Nc2cc(C3CC3)[nH]n2)nc(N2CCN(Cc3ccc(S(=O)(=O)F)cc3)CC2)n1 measure=pIC50 endpoint_value=5.84
